Ref: paper PMC11823609

System: E. coli HB4 ΔompC/F (CTX-M-14 + OXA-48)
TEST_METHOD_NOTES: microbe, parasite or virus in culture
Type: cell-based, Escherichia coli
PARTICULARS: Escherichia coli
Binary call on MIC with cut-off 20 µg/mL: strictly below means yes, and equality or higher means no.

Answered examples (3):
MOLECULE | ASSIGNED_LABEL
C[C@@H](O)[C@H]1C(=O)N2C(C(=O)O)=C(SCCN=CN)C[C@H]12 [IMP, imipenem] | yes
O=C(NNC(=O)[C@@H]1CC[C@@H]2CN1C(=O)N2OS(=O)(=O)O)[C@@H]1CCCNC1 [Zidebactam, zidebactam] | yes
NC(=O)[C@@H]1CC[C@@H]2CN1C(=O)N2OS(=O)(=O)O [Avibactam, avibactam] | yes

Exercise: Take the molecule O=C(O)C[C@@H]1CC[C@H](NC(=O)Cc2cccs2)B(O)O1 [Vaborbactam, vaborbactam] and say whether its MIC is less than 20 µg/mL.
Solution: no

Exercise: Take the molecule C[C@@H](O)[C@H]1C(=O)N2C(C(=O)O)=C(S[C@@H]3CN[C@H](C(=O)N(C)C)C3)[C@H](C)[C@H]12 [MER, meropenem] and say whether its MIC is less than 20 µg/mL.
Solution: no

Exercise: Take the molecule CC1=C[C@@H]2CN(C(=O)N2OS(=O)(=O)O)[C@@H]1C(N)=O [Durlobactam, durlobactam] and say whether its MIC is less than 20 µg/mL.
Solution: yes

###

ASSAYED_SYSTEM: OXA-48 (Klebsiella pneumoniae)
TEST_METHOD_NOTES: Dissociation rate (koff) by jump dilution; t1/2 and Kd
Assay type: biochemical
Design: These primers amplified the blaOXA-48 gene without the signal peptide; GST (glutathione S-transferase, pGEX-6P-1) (N, cleaved yes); made in house; host or cells: E. coli BL21
PARTICULARS: jump dilution; read-out: koff
MEASUREMENT_LABEL: koff (s⁻¹)
The figure you give is taken to be in s⁻¹; do not add the unit.

For orientation, consider the following solved cases.
RECORD_SMILES | ASSAYED_SYSTEM | koff [s⁻¹]
NCCONC(=O)[C@@H]1CC[C@@H]2CN1C(=O)N2OS(=O)(=O)O | OXA-48 (Klebsiella pneumoniae) | 0.0002
O=C(O)c1c(F)ccc2c1OB(O)[C@@H]1C[C@H]21 | OXA-48 (Klebsiella pneumoniae) | 0.0002
CC1=C[C@@H]2CN(C(=O)N2OS(=O)(=O)O)[C@@H]1C(N)=O | OXA-48 (Klebsiella pneumoniae) | 9.5e-06

Now, please, on to the next compound.
Exercise: What does the data say about its koff? Entry: "NCCN[C@H]1CC[C@H](CC(=O)N[C@H]2Cc3cccc(C(=O)O)c3OB2O)CC1"
Solution: 0.00023

###

Reported residence time values follow for various compounds
ASSAYED_SYSTEM: OXA-48 (Klebsiella pneumoniae, UniProt Q6XEC0)
Sequence (Q6XEC0 23-265 limits assumed): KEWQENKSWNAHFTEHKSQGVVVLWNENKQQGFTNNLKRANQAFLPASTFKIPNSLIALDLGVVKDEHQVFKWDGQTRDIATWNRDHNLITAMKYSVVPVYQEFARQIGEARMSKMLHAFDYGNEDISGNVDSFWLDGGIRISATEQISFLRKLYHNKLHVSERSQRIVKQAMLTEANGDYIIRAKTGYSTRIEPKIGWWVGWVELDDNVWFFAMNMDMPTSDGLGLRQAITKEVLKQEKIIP
TEST_METHOD_NOTES: Dissociation rate (koff) by jump dilution; t1/2 and Kd
Type: biochemical
Set-up: These primers amplified the blaOXA-48 gene without the signal peptide; GST (glutathione S-transferase, pGEX-6P-1) (N, cleaved yes); made in house; host or cells: E. coli BL21
PARTICULARS: read-out: t1/2 (residence time)
The figure you give is taken to be in min; do not add the unit.

Exercise: What does the data say about its residence time? Entry: "O=C(O)c1c(F)ccc2c1OB(O)[C@@H]1C[C@H]21"
Solution: 57.7
